test system: Tumorart P 388 (Leukämie); assay: Survival of mice bearing P 388 leukemia (NCI protocol 1200), T/C; assay type: in vivo, Maus; conditions: Mus musculus, P388, 100 mg/kg per single dose, 9 doses; first test series; read-out: Verlängerungsrate T/C (Testergebnis in % T/C)
readout.name: response vs control in vivo at 100 mg/kg (%)
Enter your answer as a number in %; do not include the unit.

Some compounds with recorded response vs control in vivo at 100 mg/kg:
CCC1(c2ccccc2)C(=O)N(CC2CO2)C(=O)N1CC1CO1 (stereo not drawn) [R5 CH3-CH2-R6 C6H5-, Diglycidyl-5-phenyl-5-ethylhydantoin]; 156
O=c1n(CC2CO2)c2cc(Cl)c(Cl)cc2n1CC1CO1 (stereo not drawn) [R2 -Cl R3 -Cl]; 120
O=C1N(CC2CO2)C(=O)C(c2ccccc2)(c2ccccc2)N1CC1CO1 (stereo not drawn) [R5 C6H5-R6 C6H5-, Diglycidyl-diphenylhydantoin]; 122
COc1ccc2c(c1)n(CC1CO1)c(=O)n2CC1CO1 (stereo not drawn) [R2 -H R3 -O-CH3, N,N-Diglycidyl-5-methoxy-benzimidazolon]; 225
O=c1ccn(CC2CO2)c(=O)n1CC1CO1 (stereo not drawn) [Beispiel 13, N,N'-Diglycidyluracil]; 153

Proceed to the following item.
Considering CC1(C)C(=O)N(CC2CO2)C(=O)N1CC1CO1 (stereo not drawn) [1,3-Diglycidyl-5,5-dimethylhydantoin] , its response vs control in vivo at 100 mg/kg with Tumorart P 388 (Leukämie) was recorded as 222
